# PROCEDURE_TEXT: Pharmacokinetic profiling in vivo
# Design: species or system C57BL/6 mice
# APPLIED_CONDITIONS: C57BL/6, mouse, plasma, po, 20 mg/kg
ENDPOINT_LABEL: half-life

# COMPOUND, OBS_VALUE
records = [
    ("Cc1nc2c(n1CCCN1CCCCC1)C(=O)c1ccccc1C2=O [Compound 44]", "26.8 min"),
]

====

# Tested on: HEC1A endometrial cancer cells
# PROCEDURE_TEXT: Thiol rescue experiment
# Assay type: cell-based, human
# APPLIED_CONDITIONS: Homo sapiens, HEC-1-A, read-out: Alone IC50
pIC50: −log10 of the molar value.
Reported pIC50 values for a set of molecules

# MOLECULE, pIC50
records = [
    ("O=C1C(Cl)=C(NCCCN2CCCCC2)C(=O)c2ccccc21 [Compound 21]", 5.74),
    ("Cc1nc2c(n1CCCN1CCCCC1)C(=O)c1ccccc1C2=O [Compound 44]", 5.19),
]
